molecular target: KDR (human, UniProt P35968 20-1356); assay: cell-based or functional assay
Sequence (P35968 20-1356): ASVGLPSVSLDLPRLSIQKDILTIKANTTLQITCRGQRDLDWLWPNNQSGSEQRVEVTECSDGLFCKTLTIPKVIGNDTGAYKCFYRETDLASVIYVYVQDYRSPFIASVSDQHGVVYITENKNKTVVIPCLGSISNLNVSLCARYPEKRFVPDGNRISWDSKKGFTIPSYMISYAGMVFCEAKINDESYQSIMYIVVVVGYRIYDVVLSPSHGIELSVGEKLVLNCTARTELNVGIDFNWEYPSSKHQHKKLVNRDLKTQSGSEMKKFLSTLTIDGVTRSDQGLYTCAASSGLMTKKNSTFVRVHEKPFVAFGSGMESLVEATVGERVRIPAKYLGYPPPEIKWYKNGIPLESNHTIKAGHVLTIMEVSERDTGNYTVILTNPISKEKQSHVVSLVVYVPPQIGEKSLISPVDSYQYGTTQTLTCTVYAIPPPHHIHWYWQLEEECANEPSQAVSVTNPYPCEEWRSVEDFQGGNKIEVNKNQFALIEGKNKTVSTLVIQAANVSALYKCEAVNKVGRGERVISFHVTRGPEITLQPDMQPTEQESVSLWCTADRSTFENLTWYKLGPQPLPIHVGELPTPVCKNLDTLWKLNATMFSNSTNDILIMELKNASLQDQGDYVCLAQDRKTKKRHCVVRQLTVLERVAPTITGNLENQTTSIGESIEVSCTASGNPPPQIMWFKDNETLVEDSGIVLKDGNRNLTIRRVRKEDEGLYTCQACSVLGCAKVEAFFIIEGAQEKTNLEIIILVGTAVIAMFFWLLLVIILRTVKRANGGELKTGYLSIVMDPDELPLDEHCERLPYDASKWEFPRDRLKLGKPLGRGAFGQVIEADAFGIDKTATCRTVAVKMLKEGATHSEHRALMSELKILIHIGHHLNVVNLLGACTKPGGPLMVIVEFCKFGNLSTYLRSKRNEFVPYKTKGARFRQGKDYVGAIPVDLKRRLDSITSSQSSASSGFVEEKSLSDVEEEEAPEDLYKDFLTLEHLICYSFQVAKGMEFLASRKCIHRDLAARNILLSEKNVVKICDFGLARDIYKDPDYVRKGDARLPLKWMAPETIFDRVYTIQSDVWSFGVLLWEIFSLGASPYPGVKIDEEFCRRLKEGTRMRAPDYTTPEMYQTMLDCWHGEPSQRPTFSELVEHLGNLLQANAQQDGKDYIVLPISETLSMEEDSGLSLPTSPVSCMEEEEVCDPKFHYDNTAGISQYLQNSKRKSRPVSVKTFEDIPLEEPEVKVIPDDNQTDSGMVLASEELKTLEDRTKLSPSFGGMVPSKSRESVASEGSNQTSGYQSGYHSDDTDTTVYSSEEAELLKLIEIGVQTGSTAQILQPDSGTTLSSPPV
endpoint.label: Activity at 133 nM (% Inhibition), 1-hour Pre-incubation at 4° C., N = 1 (%)
# unit: % | format: bare number

// returns reported Activity at 133 nM (% Inhibition), 1-hour Pre-incubation at 4° C., N = 1 for input 33C3 (antibody, V domains shown) VH: QVQLVESGGGLVKPGESLRLSCAASGFTFSDYYMSWIRQAPGKGLEWVSYISHGGSTIYYADSVKGRFTISRDNAKNSLYLQMNSLRVEDTAVYFCARDDFWSGYYFNWFDPWGQGALVTVSS VL: DIQMTQYPLSLSASVGDRVTITCRASQSISSFLNWYHQKPGKAPKLLIYGTSSLQSGVPSRFSGSGSGTDFTLTISSLQPEDFATYYCQQTYSIPLTFGGGTNVEIK
78

// returns reported Activity at 133 nM (% Inhibition), 1-hour Pre-incubation at 4° C., N = 1 for input 1G6 (antibody, V domains shown) VH: EVQLLESGGGLVQPGGSLRLSCAASGFTFSSYAMSWVRQAPGKGLEWVSAISGGGGNTYYADSVKGRFTISRDNSKNTLYLQMNSLRAEDTAVYYCSKVATDYWGQGTLVTVSS VL: QPVLTQSSSASASLGSSVKLTCTLSSGHSSYIIAWHQQQPGKAPRYLMKLEGSGSYNKGSGVPDRFSGSSSGADRYLTISNLQFEDEADYYCETWDSYTVVFGGGTKLTVL
35
